Source: the supplement of paper PMC10567573

B1: C1orf137 (parent)
chain: LPQETNLTLKVCKPQAPQKLDPTL

Variants of: B1
Assay: protein stability index of a GFP-peptide fusion (GPS, HEK-293T) (PSI 1-6); higher = more stable;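 also: lentivirally expressed fusions sorted by FACS into six bins by GFP to DsRed ratio, PSI derived from sequencing read proportions per bin multiplied by bin number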
Details: c terminus: a fixed tail appended
# if value of protein stability index reaches 4, tag True; if it stays below, tag False

{"MUTANT DESIGNATION": "K10I", "CLASS ASSIGNMENT": "False"}
{"MUTANT DESIGNATION": "P14V", "CLASS ASSIGNMENT": "False"}
{"MUTANT DESIGNATION": "L9A", "CLASS ASSIGNMENT": "True"}
{"MUTANT DESIGNATION": "L9T", "CLASS ASSIGNMENT": "True"}
{"MUTANT DESIGNATION": "P17F", "CLASS ASSIGNMENT": "False"}

Has P17T a recorded protein stability index greater than or equal to 4? False

Please check the record D21T and state if its protein stability index is at or above 4. False

Does protein stability index meet or surpass 4 for L1H ? False
